Property: IC50; scope: individual compounds
# system.name: Substance-P receptor (Homo sapiens)
# Sequence (P25103 whole entry): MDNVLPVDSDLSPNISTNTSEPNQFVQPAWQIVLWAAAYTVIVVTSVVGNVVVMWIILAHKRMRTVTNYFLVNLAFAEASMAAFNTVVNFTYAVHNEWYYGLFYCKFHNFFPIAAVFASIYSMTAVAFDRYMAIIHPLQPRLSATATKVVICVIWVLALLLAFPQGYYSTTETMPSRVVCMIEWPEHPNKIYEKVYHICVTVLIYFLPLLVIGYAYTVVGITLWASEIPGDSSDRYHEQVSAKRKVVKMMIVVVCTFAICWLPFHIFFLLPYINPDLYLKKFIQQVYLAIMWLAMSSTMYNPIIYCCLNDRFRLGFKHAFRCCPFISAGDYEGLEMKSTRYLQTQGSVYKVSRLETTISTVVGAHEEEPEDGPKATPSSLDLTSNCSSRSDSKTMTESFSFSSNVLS
# method: Binding affinity at Tachykinin receptor 1 by measuring its ability to inhibit [125I]BH-SP binding in human IM-9 cells (Lymphoblast cells).

{"columns": ["compound", "system.name", "IC50"],
 "data": [
  ["Cc1ccc(-c2c(C(=O)N(C)[C@H](C)c3ccccc3)n(C)c(=O)c3ncccc23)cc1", "Substance-P receptor (Homo sapiens)", "130 nM"],
  ["Cc1ccc(-c2c(C(=O)N(C)[C@@H](C)c3cc(C(F)(F)F)cc(C(F)(F)F)c3)n(C)c(=O)c3ncccc23)cc1 (stereo in doubt; 3a-A)", "Substance-P receptor (Homo sapiens)", "0.8 nM"],
  ["Cc1ccc(-c2c(C(=O)N(C)[C@@H](C)c3cc(C(F)(F)F)cc(C(F)(F)F)c3)n(C)c(=O)c3ncccc23)cc1 (stereo in doubt; 3a-B)", "Substance-P receptor (Homo sapiens)", "44 nM"],
  ["Cc1ccc(-c2c(C(=O)N(C)[C@H](C)c3cc(C(F)(F)F)cc(C(F)(F)F)c3)n(C)c(=O)c3ncccc23)cc1 (stereo in doubt; 3b-B)", "Substance-P receptor (Homo sapiens)", "620 nM"],
  ["Cc1ccc(-c2c(C(=O)N(C)[C@H](C)c3cc(C(F)(F)F)cc(C(F)(F)F)c3)n(C)c(=O)c3ncccc23)cc1 (stereo in doubt; 3b-A)", "Substance-P receptor (Homo sapiens)", "19 nM"]
]}

Data provenance is ChEMBL document CHEMBL1131634.
